Hello, the source for this data is paper PMC7179128, in case you need it.

Assay: Oral bioavailability / pharmacokinetics in SD rats
Format: in vivo
Details: rat, single dose 50 mg∙kg^−1 (GA equivalent), n = 6, GA in plasma
property: AUC(0-t) (ng·h/mL)
Field: numeric (ng·h/mL). Do not append units.

Using the record for O=C(O)c1cc(O)c(O)c(O)c1 , report its AUC(0-t).
4100

* * *

Assay: Oral bioavailability / pharmacokinetics in SD rats
Assay type: in vivo
Settings: rat, single dose 50 mg∙kg^−1 (GA equivalent), n = 6, GA in plasma
property: Cmax (ng/mL)
Field: numeric (ng/mL). Do not append units.

Using the record for O=C(O)c1cc(O)c(O)c(O)c1 , report its Cmax.
1500
